Cited source: patent US20240294522A1

The compounds below have reported pIC50 for UniProtKB P34947.
pIC50: −log10 of the molar value.
REPORTED METRIC: pIC50

[[record]]
compound = "N#C/C(=C\\c1c[nH]c2ncccc12)C(=O)NCc1cccc(Cl)c1 [Example 60]"
tested_on = "UniProtKB P34947"
reported_metric = "pIC50"
result = "6.30 to 7.00"

[[record]]
compound = "COc1ccc([C@@H](C)NC(=O)/C=C/c2c[nH]c3ncc(-c4cccc(S(C)(=O)=O)c4)cc23)cc1OC [Example 114]"
tested_on = "UniProtKB P34947"
reported_metric = "pIC50"
result = "≥ 7.30"

[[record]]
compound = "COc1ccc([C@@H](C)NC(=O)/C=C/c2c[nH]c3nccc(-c4cnn5ccccc45)c23)cc1OC [Example 242]"
tested_on = "UniProtKB P34947"
reported_metric = "pIC50"
result = "6.30 to 7.00"

[[record]]
compound = "COc1ccc([C@@H](C)NC(=O)/C=C/c2c[nH]c3ncc(-c4cccc(NS(C)(=O)=O)c4)cc23)cc1OC [Example 193]"
tested_on = "UniProtKB P34947"
reported_metric = "pIC50"
result = "≥ 7.30"

[[record]]
compound = "COc1ccc([C@@H](C)NC(=O)/C=C/c2c[nH]c3ncc(-c4ccc(F)cc4OC)cc23)cc1OC [Example 201]"
tested_on = "UniProtKB P34947"
reported_metric = "pIC50"
result = "6.30 to 7.00"

[[record]]
compound = "COc1ccc([C@@H](C)NC(=O)/C=C/c2c[nH]c3nccc(-c4ccc(F)cc4OC)c23)cc1OC [Example 229]"
tested_on = "UniProtKB P34947"
reported_metric = "pIC50"
result = "5.00 to 6.00"

[[record]]
compound = "COc1ccc([C@@H](C)NC(=O)/C(C#N)=C/c2c[nH]c3ncc(-c4ccccc4)cc23)cc1OC [Example 116]"
tested_on = "UniProtKB P34947"
reported_metric = "pIC50"
result = "7.00 to 7.30"


====

Biological target: GRK5 (Homo sapiens, UniProt P34947)
Sequence (P34947 whole entry): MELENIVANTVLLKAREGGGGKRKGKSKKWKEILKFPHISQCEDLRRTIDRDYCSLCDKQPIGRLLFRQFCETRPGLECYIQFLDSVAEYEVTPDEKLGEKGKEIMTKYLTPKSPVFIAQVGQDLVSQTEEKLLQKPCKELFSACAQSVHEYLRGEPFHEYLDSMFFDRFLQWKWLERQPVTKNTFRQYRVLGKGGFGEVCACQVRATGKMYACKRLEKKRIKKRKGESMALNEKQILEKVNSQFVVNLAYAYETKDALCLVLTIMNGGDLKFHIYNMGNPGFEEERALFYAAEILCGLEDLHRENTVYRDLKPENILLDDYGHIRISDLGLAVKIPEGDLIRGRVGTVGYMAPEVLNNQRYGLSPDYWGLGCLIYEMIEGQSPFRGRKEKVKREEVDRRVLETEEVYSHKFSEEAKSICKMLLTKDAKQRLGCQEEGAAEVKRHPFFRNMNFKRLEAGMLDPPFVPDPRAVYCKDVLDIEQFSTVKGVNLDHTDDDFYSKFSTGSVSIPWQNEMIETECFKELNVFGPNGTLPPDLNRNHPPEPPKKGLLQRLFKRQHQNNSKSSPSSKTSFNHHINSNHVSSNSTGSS
pIC50: −log10 of the molar value.
REPORTED METRIC: pIC50

[[record]]
molecule = "COc1ccc([C@@H](C)NC(=O)/C(C#N)=C/c2c[nH]c3ncc(O[C@@H]4CCOC4)cc23)cc1OC"
tested_on = "GRK5 (Homo sapiens, UniProt P34947)"
result = "≥ 7.30"

[[record]]
molecule = "COc1ccc([C@@H](C)NC(=O)/C=C/c2c[nH]c3ncc(-c4cnn(CC(C)O)c4)cc23)cc1OC (stereo partly shown)"
tested_on = "GRK5 (Homo sapiens, UniProt P34947)"
result = "≥ 7.30"

[[record]]
molecule = "C[C@@H](NC(=O)/C(C#N)=C/c1c[nH]c2ncccc12)c1ccc(Cl)cc1"
tested_on = "GRK5 (Homo sapiens, UniProt P34947)"
result = "6.30 to 7.00"

[[record]]
molecule = "COc1ccc(-c2cnc3[nH]cc(/C=C(/C#N)C(=O)N[C@H](C)c4ccc(OC)c(OC)c4)c3c2)cc1OC"
tested_on = "GRK5 (Homo sapiens, UniProt P34947)"
result = "7.00 to 7.30"


====

Biological target: UniProtKB P34947
REPORTED METRIC: IC50

[[record]]
smiles_text = "COc1ccc([C@@H](C)NC(=O)/C(C#N)=C/c2c[nH]c3ncc(-c4ccc(OCCN(C)C)cc4)cc23)cc1OC"
reported_metric = "IC50"
result = "≤ 0.05 µM"

[[record]]
smiles_text = "CN(C)c1cccc(CNC(=O)/C(C#N)=C/c2c[nH]c3ncccc23)c1"
reported_metric = "IC50"
result = "1 to 10 µM"

[[record]]
smiles_text = "COc1ccc([C@@H](C)NC(=O)/C=C/c2c[nH]c3ncc(-c4ccc(CN(C)C)cc4)cc23)cc1OC"
reported_metric = "IC50"
result = "0.05 to 0.1 µM"

[[record]]
smiles_text = "COc1ccc([C@@H](C)NC(=O)/C(C#N)=C/c2c[nH]c3ncc(-c4cnn(Cc5ccccc5)c4)cc23)cc1OC"
reported_metric = "IC50"
result = "0.1 to 0.5 µM"

[[record]]
smiles_text = "COc1ccc([C@@H](C)NC(=O)/C(C#N)=C/c2c[nH]c3ncc(-c4cnn(C)c4)c(C)c23)cc1OC"
reported_metric = "IC50"
result = "0.1 to 0.5 µM"

[[record]]
smiles_text = "COc1ccc([C@@H](C)NC(=O)/C(C#N)=C/c2c[nH]c3ncc(-c4cccnc4)cc23)cc1OC"
reported_metric = "IC50"
result = "≤ 0.05 µM"

[[record]]
smiles_text = "COc1ccc([C@@H](C)NC(=O)/C=C/c2c[nH]c3ncc(-c4cccc(CCN(C)C)c4)cc23)cc1OC"
reported_metric = "IC50"
result = "≤ 0.05 µM"


====

The compounds below have reported IC50 for GRK5 (Homo sapiens, UniProt P34947).
REPORTED METRIC: IC50

[[record]]
compound = "N#C/C(=C\\c1c[nH]c2ncccc12)C(=O)NCc1ccc(Cl)cc1 [Example 58]"
tested_on = "GRK5 (Homo sapiens, UniProt P34947)"
reported_metric = "IC50"
result = "100 to 500 nM"

[[record]]
compound = "COc1ccc([C@@H](C)NC(=O)/C(C#N)=C/c2c[nH]c3ncc(-c4cnn(C5COC5)c4)cc23)cc1OC [Example 155]"
tested_on = "GRK5 (Homo sapiens, UniProt P34947)"
reported_metric = "IC50"
result = "≤ 50 nM"

[[record]]
compound = "COc1ccc([C@@H](C)NC(=O)/C=C/c2c[nH]c3ncc(-c4cccc(CN(C)C)c4)cc23)cc1OC [Example 190]"
tested_on = "GRK5 (Homo sapiens, UniProt P34947)"
reported_metric = "IC50"
result = "≤ 50 nM"

[[record]]
compound = "COc1ccc([C@@H](C)NC(=O)/C=C/c2c[nH]c3ncc(-c4ccc(F)c(S(C)(=O)=O)c4)cc23)cc1OC [Example 220]"
tested_on = "GRK5 (Homo sapiens, UniProt P34947)"
reported_metric = "IC50"
result = "≤ 50 nM"

[[record]]
compound = "O=C(/C=C/c1c[nH]c2ncc(Cl)cc12)NCc1ccccc1 [Example 6]"
tested_on = "GRK5 (Homo sapiens, UniProt P34947)"
reported_metric = "IC50"
result = "100 to 500 nM"

[[record]]
compound = "COc1ccc([C@@H](C)NC(=O)/C=C/c2c[nH]c3nccc(-c4ccc(CN5CCN(C)CC5)cc4)c23)cc1OC [Example 234]"
tested_on = "GRK5 (Homo sapiens, UniProt P34947)"
reported_metric = "IC50"
result = "100 to 500 nM"

[[record]]
compound = "CN(C)c1ccccc1CNC(=O)/C(C#N)=C/c1c[nH]c2ncccc12 [Example 25]"
tested_on = "GRK5 (Homo sapiens, UniProt P34947)"
reported_metric = "IC50"
result = "1000 to 10000 nM"

[[record]]
compound = "N#C/C(=C\\c1c[nH]c2ncccc12)C(=O)N[C@H](CCO)c1ccccc1 [Example 40]"
tested_on = "GRK5 (Homo sapiens, UniProt P34947)"
reported_metric = "IC50"
result = "100 to 500 nM"

[[record]]
compound = "C[C@@H](NC(=O)/C(C#N)=C/c1c[nH]c2ncccc12)c1cccc(Cl)c1 [Example 13]"
tested_on = "GRK5 (Homo sapiens, UniProt P34947)"
reported_metric = "IC50"
result = "50 to 100 nM"

[[record]]
compound = "COc1ccc([C@@H](C)NC(=O)/C(C#N)=C/c2c[nH]c3ncc(-c4cccc(S(C)(=O)=O)c4)cc23)cc1OC [Example 125]"
tested_on = "GRK5 (Homo sapiens, UniProt P34947)"
reported_metric = "IC50"
result = "≤ 50 nM"

[[record]]
compound = "COc1ccc([C@@H](C)NC(=O)/C=C/c2c[nH]c3ncc(-c4c(C)nn(C)c4C)cc23)cc1OC [Example 209]"
tested_on = "GRK5 (Homo sapiens, UniProt P34947)"
reported_metric = "IC50"
result = "50 to 100 nM"

[[record]]
compound = "N#C/C(=C\\c1c[nH]c2ncccc12)C(=O)NCc1cccc(N2CCOCC2)c1 [Example 46]"
tested_on = "GRK5 (Homo sapiens, UniProt P34947)"
reported_metric = "IC50"
result = "1000 to 10000 nM"

[[record]]
compound = "COc1ccc([C@@H](C)NC(=O)/C(C#N)=C/c2c[nH]c3ncc(-c4cccc(S(=O)(=O)N(C)C)c4)cc23)cc1OC [Example 149]"
tested_on = "GRK5 (Homo sapiens, UniProt P34947)"
reported_metric = "IC50"
result = "≤ 50 nM"

[[record]]
compound = "COc1ccc([C@@H](C)NC(=O)/C=C/c2c[nH]c3ncc(-c4cc(S(C)(=O)=O)ccc4C)cc23)cc1OC [Example 248]"
tested_on = "GRK5 (Homo sapiens, UniProt P34947)"
reported_metric = "IC50"
result = "≤ 50 nM"

[[record]]
compound = "C[C@@H](NC(=O)/C(C#N)=C/c1c[nH]c2ncc(-c3cnn(C)c3)cc12)c1ccc(Cl)cc1 [Example 95]"
tested_on = "GRK5 (Homo sapiens, UniProt P34947)"
reported_metric = "IC50"
result = "50 to 100 nM"

